# target.of.assay: FGFR3 (Homo sapiens, UniProt P22607)
# Sequence (P22607 23-806): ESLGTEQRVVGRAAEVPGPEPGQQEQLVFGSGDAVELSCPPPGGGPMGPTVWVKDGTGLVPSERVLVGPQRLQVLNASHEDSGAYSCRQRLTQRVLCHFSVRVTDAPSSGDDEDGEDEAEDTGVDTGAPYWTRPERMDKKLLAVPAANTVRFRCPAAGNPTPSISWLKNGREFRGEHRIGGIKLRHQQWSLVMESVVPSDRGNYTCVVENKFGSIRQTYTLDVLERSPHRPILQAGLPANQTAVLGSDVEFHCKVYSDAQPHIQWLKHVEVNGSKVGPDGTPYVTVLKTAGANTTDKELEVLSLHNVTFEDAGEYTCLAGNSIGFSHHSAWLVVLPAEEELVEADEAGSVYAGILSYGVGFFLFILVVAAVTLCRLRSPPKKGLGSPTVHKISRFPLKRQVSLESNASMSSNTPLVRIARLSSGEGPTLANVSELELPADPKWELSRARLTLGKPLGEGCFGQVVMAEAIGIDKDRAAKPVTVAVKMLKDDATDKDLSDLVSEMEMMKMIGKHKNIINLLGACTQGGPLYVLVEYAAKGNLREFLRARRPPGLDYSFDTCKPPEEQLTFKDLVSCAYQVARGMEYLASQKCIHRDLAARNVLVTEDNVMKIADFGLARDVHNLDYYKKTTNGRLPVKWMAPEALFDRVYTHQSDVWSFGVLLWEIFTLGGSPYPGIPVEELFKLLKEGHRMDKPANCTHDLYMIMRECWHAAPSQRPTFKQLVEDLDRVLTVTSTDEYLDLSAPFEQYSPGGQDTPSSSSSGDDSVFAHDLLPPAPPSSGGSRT
# method.summary: Affinity to FGFR3 measured by FACS
# Type: binding
recorded.metric: Kd (nM)
Hi! Could you send only the number? It should be in nM, unit omitted.

PRO-001: HuCAL clone anti-FGFR3 antibody; VH-CDR3 SEQ ID NO:1, VL-CDR3 SEQ ID NO:10; VH SEQ ID NO:19, VL SEQ ID NO:28 (antibody, V domains shown, SEQUENCE FROM PHAGE LIBRARY) VH: QVQLQQSGPGLVKPSQTLSLTCAISGDSVSSNSAAWNWIRQSPGRGLEWLGRTYYRSKWYNDYAVSVKSRITINPDTSKNQFSLQLNSVTPEDTAVYYCARSYYPDFDYWGQGTLVTVSS VL: DIELTQPPSVSVAPGQTARISCSGDALGDKYASWYQQKPGQAPVLVIYDDSDRPSGIPERFSGSNSGNTATLTISGTQAEDEADYYCQSYDGPDLWVFGGGTKLTVLGQ :: 0.7
PRO-002: HuCAL clone anti-FGFR3 antibody; VH-CDR3 SEQ ID NO:2, VL-CDR3 SEQ ID NO:11 (antibody, V domains shown) VH: QVQLVQSGAEVKKPGASVKVSCKASGYTFTSYYMHWVRQAPGQGLEWMGWINPNSGGTNYAQKFQGRVTMTRDTSISTAYMELSSLRSEDTAVYYCARDFLGYEFDYWGQGTLVTVSS VL: DIELTQPPSVSVAPGQTARISCSGDALGDKYASWYQQKPGQAPVLVIYDDSDRPSGIPERFSGSNSGNTATLTISGTQAEDEADYYCQSYDYSADYVFGGGTKLTVLGQ :: 43

State its Kd: PRO-026: HuCAL clone anti-FGFR3 antibody; VH-CDR3 SEQ ID NO:6, VL-CDR3 SEQ ID NO:15 (antibody, V domains shown) VH: QVQLVQSGAEVKKPGASVKVSCKASGYTFTSYYMHWVRQAPGQGLEWMGWINPNSGGTNYAQKFQGRVTMTRDTSISTAYMELSSLRSEDTAVYYCARGYWYAYFTYINYGYFDNWGQGTLVTVSS VL: DIALTQPASVSGSPGQSITISCTGTSSDVGGYNYVSWYQQHPGKAPKLMIYDVSNRPSGVSNRFSGSKSGNTASLTISGLQAEDEADYYCQSYDNNSDVVFGGGTKLTVLGQ
1.4
